# Tested on: lupus anti-dsDNA monoclonal antibody, R4A
# test_name: Competitive ELISA, R4A binding to bound C1q protein
# Design: species or system mouse
# conditions_used: at the most effective concentration of compound
parameter_measured: inhibition of R4A binding, C1q assay (%)

>>> readout_number("CC(C)CN(C[C@@H](O)[C@H](Cc1ccccc1)NC(=O)O[C@H]1CO[C@H]2OCC[C@H]21)S(=O)(=O)c1ccc(N)cc1")
0
>>> readout_number("CC(C)(C)NCC1CC2CCCCC2CN1CC(O)C(Cc1ccccc1)NCC(CCN)NCC1Nc2ccccc2CC1O (stereo not drawn) [12W]")
18

[A] CC(C)(C)NC(=O)[C@@H]1C[C@@H]2CCCC[C@@H]2CN1C[C@@H](O)[C@H](Cc1ccccc1)NC(=O)[C@H](CC(N)=O)NC(=O)c1ccc2ccccc2n1
[B] CC(C)c1nc(CN(C)C(=O)N[C@H](C(=O)N[C@@H](Cc2ccccc2)C[C@H](O)[C@H](Cc2ccccc2)NC(=O)OCc2cncs2)C(C)C)cs1
[ask] // pick larger inhibition of R4A binding, C1q assay from pair: A vs B Provide the label of your selected option as the answer.
[reply] A

[a] Cc1cccc(C)c1OCC(=O)N[C@@H](Cc1ccccc1)[C@@H](O)C[C@H](Cc1ccccc1)NC(=O)[C@H](C(C)C)N1CCCNC1=O
[b] COC(=O)N[C@H](C(=O)N[C@@H](Cc1ccccc1)[C@@H](O)CN(Cc1ccc(-c2ccccn2)cc1)NC(=O)[C@@H](NC(=O)OC)C(C)(C)C)C(C)(C)C
[ask] // pick larger inhibition of R4A binding, C1q assay from pair: a vs b Provide the label of your selected option as the answer.
[reply] b
(b: 64%, a: 38%)
